system: 843782-103-R-J1-PDC complex spheroid viability; test: Anticancer human tumor 843782-103-R-J1-PDC patient-derived lung adenocarcinoma cell line growth inhibition [RAS]; conditions: second compound 0.03 µM; first compound 1 µM; stronger effect = lower value
READOUT_KIND: viability, T/C (%)
One number for each entry, in %.

Solved entries (count: 2):
COMPOUND: NC1c2ccccc2OC12CCN(c1cnc3c(N4CCCc5ncccc54)n[nH]c3n1)CC2 (centres undefined) + CCn1c(-c2cccnc2C(C)OC)c2c3cc(ccc31)N1CCOC(CC(NC(=O)C(C(C)C)N(C)C(=O)C3(F)CCN(C(=O)C#CC(C)(C)N(C)C)CC3)C(=O)N3CCCC(N3)C(=O)OCC(C)(C)C2)C1
SYSTEM: 843782-103-R-J1-PDC complex spheroid viability
viability, T/C / %: 18.5
//
COMPOUND: C=CC(=O)N1CCN(c2nc(OCC3CCCN3C)nc3c(F)c(-c4nc(N)cc(C)c4C(F)(F)F)c(Cl)cc23)C(C)C1 (centres undefined) + CCn1c(-c2cc(N3CCN(C)CC3)cnc2C(C)OC)c2c3cc(ccc31)-c1csc(n1)CC(NC(=O)C1CC1C)C(=O)N1CCCC(N1)C(=O)OCC(C)(C)C2
SYSTEM: 843782-103-R-J1-PDC complex spheroid viability
viability, T/C / %: 21.6

Hi there! I need viability, T/C for each item below, if you can.
1. Cc1nc(N2CCC3(CC2)COC(C)C3N)c(CO)nc1Sc1ccnc(N)c1Cl (centres undefined) + CCn1c(-c2cccnc2C(C)OC)c2c3cc(ccc31)N1CCOC(CC(NC(=O)C(C(C)C)N(C)C(=O)C3(F)CCN(C(=O)C#CC(C)(C)N(C)C)CC3)C(=O)N3CCCC(N3)C(=O)OCC(C)(C)C2)C1
2. C=CC(=O)Nc1cc(Nc2nccc(-c3cn(C)c4ccccc34)n2)c(OC)cc1N(C)CCN(C)C + CCn1c(-c2cccnc2C(C)OC)c2c3cc(ccc31)N1CCOC(CC(NC(=O)C(C(C)C)N(C)C(=O)C3(F)CCN(C(=O)C#CC(C)(C)N(C)C)CC3)C(=O)N3CCCC(N3)C(=O)OCC(C)(C)C2)C1

1. 27.6
2. 31.9

----------
tested on: 843782-103-R-J1-PDC complex spheroid viability; assay: Anticancer human tumor 843782-103-R-J1-PDC cell line growth inhibition [RAS]; settings: curve of first compound; second compound 0.3 µM;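 also: viability read after seven days of compound exposure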
pIC50: −log10 of the molar value.
Please go through the items and note down their pIC50.

Solved entries (count: 3):
COMPOUND: CC1(C)CCC(Nc2ncc(C(F)(F)F)c(-c3c[nH]c4c(P(C)(C)=O)c(C#N)ccc34)n2)CN1 (stereo not given) + CCn1c(-c2cccnc2C(C)OC)c2c3cc(ccc31)N1CCOC(CC(NC(=O)C(C(C)C)N(C)C(=O)C3(F)CCN(C(=O)C#CC(C)(C)N(C)C)CC3)C(=O)N3CCCC(N3)C(=O)OCC(C)(C)C2)C1
pIC50: 8.78

COMPOUND: C=CC(=O)N1CCN(c2nc(OCC3CCCN3C)nc3c(F)c(-c4nc(N)cc(C)c4C(F)(F)F)c(Cl)cc23)C(C)C1 (stereo not given) + CCn1c(-c2cccnc2C(C)OC)c2c3cc(ccc31)N1CCOC(CC(NC(=O)C(C(C)C)N(C)C(=O)C3(F)CCN(C(=O)C#CC(C)(C)N(C)C)CC3)C(=O)N3CCCC(N3)C(=O)OCC(C)(C)C2)C1
pIC50: < 6.00

COMPOUND: C=CC(=O)Nc1cc(Nc2nccc(-c3cn(C)c4ccccc34)n2)c(OC)cc1N(C)CCN(C)C + CCn1c(-c2cc(N3CCN(C)CC3)cnc2C(C)OC)c2c3cc(ccc31)-c1csc(n1)CC(NC(=O)C1CC1C)C(=O)N1CCCC(N1)C(=O)OCC(C)(C)C2
pIC50: > 8.50

Hi there! I need pIC50 for each item below, if you can.
1. CC1(O)CCCC1n1c(=O)c(C(F)F)cc2cnc(NC3CCN(S(C)(=O)=O)CC3)nc21 (stereo not given) + CCn1c(-c2cc(N3CCN(C)CC3)cnc2C(C)OC)c2c3cc(ccc31)-c1csc(n1)CC(NC(=O)C1CC1C)C(=O)N1CCCC(N1)C(=O)OCC(C)(C)C2
2. CCN1CCN(Cc2ccc(Nc3ncc(F)c(-c4cc(F)c5nc(C)n(C(C)C)c5c4)n3)nc2)CC1 + CCn1c(-c2cc(N3CCN(C)CC3)cnc2C(C)OC)c2c3cc(ccc31)-c1csc(n1)CC(NC(=O)C1CC1C)C(=O)N1CCCC(N1)C(=O)OCC(C)(C)C2
3. Cc1nc(N2CCC3(CC2)COC(C)C3N)c(CO)nc1Sc1ccnc(N)c1Cl (stereo not given) + CCn1c(-c2cc(N3CCN(C)CC3)cnc2C(C)OC)c2c3cc(ccc31)-c1csc(n1)CC(NC(=O)C1CC1C)C(=O)N1CCCC(N1)C(=O)OCC(C)(C)C2
4. CCC(CC)c1cc(NC2CCC(N)C2)n2nccc2n1 (stereo not given) + CCn1c(-c2cc(N3CCN(C)CC3)cnc2C(C)OC)c2c3cc(ccc31)-c1csc(n1)CC(NC(=O)C1CC1C)C(=O)N1CCCC(N1)C(=O)OCC(C)(C)C2

1. > 7.50
2. > 8.50
3. > 7.50
4. > 7.50

Hi there! I need pIC50 for each item below, if you can.
1. CCC(CC)c1cc(NC2CCC(N)C2)n2nccc2n1 (stereo not given) + CCn1c(-c2cccnc2C(C)OC)c2c3cc(ccc31)N1CCOC(CC(NC(=O)C(C(C)C)N(C)C(=O)C3(F)CCN(C(=O)C#CC(C)(C)N(C)C)CC3)C(=O)N3CCCC(N3)C(=O)OCC(C)(C)C2)C1
2. CC(Nc1ccc2c(c1)OCCn1cc(N3C(=O)OCC3C(F)F)nc1-2)C(N)=O (stereo not given) + CCn1c(-c2cccnc2C(C)OC)c2c3cc(ccc31)N1CCOC(CC(NC(=O)C(C(C)C)N(C)C(=O)C3(F)CCN(C(=O)C#CC(C)(C)N(C)C)CC3)C(=O)N3CCCC(N3)C(=O)OCC(C)(C)C2)C1
3. CC(C)n1nc(-c2ccc3oc(N)nc3c2)c2c(N)ncnc21 + CCn1c(-c2cc(N3CCN(C)CC3)cnc2C(C)OC)c2c3cc(ccc31)-c1csc(n1)CC(NC(=O)C1CC1C)C(=O)N1CCCC(N1)C(=O)OCC(C)(C)C2
4. CC(C)n1nc(-c2ccc3oc(N)nc3c2)c2c(N)ncnc21 + CCn1c(-c2cccnc2C(C)OC)c2c3cc(ccc31)N1CCOC(CC(NC(=O)C(C(C)C)N(C)C(=O)C3(F)CCN(C(=O)C#CC(C)(C)N(C)C)CC3)C(=O)N3CCCC(N3)C(=O)OCC(C)(C)C2)C1

6.05
> 7.50
> 9.50
8.45

Hi there! I need pIC50 for each item below, if you can.
1. C=CC(=O)N1CCN(c2nc(OCC3CCCN3C)nc3c(F)c(-c4nc(N)cc(C)c4C(F)(F)F)c(Cl)cc23)C(C)C1 (stereo not given) + CCn1c(-c2cc(N3CCN(C)CC3)cnc2C(C)OC)c2c3cc(ccc31)-c1csc(n1)CC(NC(=O)C1CC1C)C(=O)N1CCCC(N1)C(=O)OCC(C)(C)C2
2. CC1(O)CCCC1n1c(=O)c(C(F)F)cc2cnc(NC3CCN(S(C)(=O)=O)CC3)nc21 (stereo not given) + CCn1c(-c2cccnc2C(C)OC)c2c3cc(ccc31)N1CCOC(CC(NC(=O)C(C(C)C)N(C)C(=O)C3(F)CCN(C(=O)C#CC(C)(C)N(C)C)CC3)C(=O)N3CCCC(N3)C(=O)OCC(C)(C)C2)C1
3. CCN1CCN(Cc2ccc(Nc3ncc(F)c(-c4cc(F)c5nc(C)n(C(C)C)c5c4)n3)nc2)CC1 + CCn1c(-c2cccnc2C(C)OC)c2c3cc(ccc31)N1CCOC(CC(NC(=O)C(C(C)C)N(C)C(=O)C3(F)CCN(C(=O)C#CC(C)(C)N(C)C)CC3)C(=O)N3CCCC(N3)C(=O)OCC(C)(C)C2)C1
4. CC(=O)OC12COC1CC(O)C1(C)C(=O)C(O)C3=C(C)C(OC(=O)C(O)C(NC(=O)OC(C)(C)C)c4ccccc4)CC(O)(C(OC(=O)c4ccccc4)C21)C3(C)C (stereo not given) + CCn1c(-c2cc(N3CCN(C)CC3)cnc2C(C)OC)c2c3cc(ccc31)-c1csc(n1)CC(NC(=O)C1CC1C)C(=O)N1CCCC(N1)C(=O)OCC(C)(C)C2

["> 8.50", 7.23, 6.53, "> 7.50"]

----------
Please go through the items and note down their viability, T/C.
test system: 843782-103-R-J1-PDC complex spheroid viability; test: Anticancer human tumor 843782-103-R-J1-PDC cell line growth inhibition [RAS]; details: second compound 0.3 µM; first compound 1 µM; stronger effect = lower value;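 also: viability read after seven days of compound exposure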
Numbers only, in %.

MOLECULE: NC1c2ccccc2OC12CCN(c1cnc3c(N4CCCc5ncccc54)n[nH]c3n1)CC2 (configuration not stated) + CCn1c(-c2cc(N3CCN(C)CC3)cnc2C(C)OC)c2c3cc(ccc31)-c1csc(n1)CC(NC(=O)C1CC1C)C(=O)N1CCCC(N1)C(=O)OCC(C)(C)C2
SYSTEM: 843782-103-R-J1-PDC complex spheroid viability
UNIT_STRING: %
viability, T/C: 12.8

Find the measured viability, T/C of O=C(c1ccc(F)c(F)c1Nc1ccc(I)cc1F)N1CC(O)([C@@H]2CCCCN2)C1 + CCn1c(-c2cc(N3CCN(C)CC3)cnc2C(C)OC)c2c3cc(ccc31)-c1csc(n1)CC(NC(=O)C1CC1C)C(=O)N1CCCC(N1)C(=O)OCC(C)(C)C2 and report it.
5.35
